Biological target: Human CD137 ECD (human)
Sequence (chain, as listed by the source limits assumed): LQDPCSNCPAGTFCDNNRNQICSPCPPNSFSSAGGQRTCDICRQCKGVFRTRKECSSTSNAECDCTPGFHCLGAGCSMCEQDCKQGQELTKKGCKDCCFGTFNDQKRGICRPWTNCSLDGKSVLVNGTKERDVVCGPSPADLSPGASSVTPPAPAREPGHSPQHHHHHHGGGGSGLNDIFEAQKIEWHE
Assay: SPR, vs parent H183/L072
So I've got a bunch of binders here, and I need their fold change of affinity values.
Give just the numeric value; fold need not be written.

Query: May I ask what fold change of affinity has been recorded for dBBDu183H A100Y / dBBDu072L (antibody, name in Kabat numbering, V domains shown) VH: QVQLVESGGGLVQPGRSLRLSCAASGFTFSNAWMHWVRQAPGKGLEWVAQIKDKGNAYAAYYAPSVKGRFTISRDDSKNSIYLQMNSLKTEDTAVYYCHYVHYASYSTVLPAFGVDAWGQGTTVTVSS VL: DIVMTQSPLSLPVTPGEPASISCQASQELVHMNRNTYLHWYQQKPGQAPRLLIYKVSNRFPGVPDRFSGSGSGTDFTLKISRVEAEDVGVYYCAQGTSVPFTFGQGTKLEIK ?
Reply: 0

Query: May I ask what fold change of affinity has been recorded for dBBDu183H H93S / dBBDu072L (antibody, name in Kabat numbering, V domains shown) VH: QVQLVESGGGLVQPGRSLRLSCAASGFTFSNAWMHWVRQAPGKGLEWVAQIKDKGNAYAAYYAPSVKGRFTISRDDSKNSIYLQMNSLKTEDTAVYYCSYVHYASASTVLPAFGVDAWGQGTTVTVSS VL: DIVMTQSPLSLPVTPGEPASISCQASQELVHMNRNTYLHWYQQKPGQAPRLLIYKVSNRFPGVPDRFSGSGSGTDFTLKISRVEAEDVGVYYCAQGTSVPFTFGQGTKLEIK ?
Reply: 0

Query: May I ask what fold change of affinity has been recorded for dBBDu183H T100bE / dBBDu072L (antibody, name in Kabat numbering, V domains shown) VH: QVQLVESGGGLVQPGRSLRLSCAASGFTFSNAWMHWVRQAPGKGLEWVAQIKDKGNAYAAYYAPSVKGRFTISRDDSKNSIYLQMNSLKTEDTAVYYCHYVHYASASEVLPAFGVDAWGQGTTVTVSS VL: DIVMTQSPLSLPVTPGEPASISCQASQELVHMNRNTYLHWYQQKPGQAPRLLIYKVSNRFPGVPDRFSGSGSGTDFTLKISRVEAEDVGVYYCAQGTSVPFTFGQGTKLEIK ?
Reply: 0
